These measurements were taken from the supplement of paper PMC10567573.

So I've got a bunch of variants here, and I need their protein stability index values.
B1: KRT15 (parent)
chain: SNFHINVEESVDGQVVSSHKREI

Variants of: B1
Test: protein stability index of a GFP-peptide fusion (GPS, HEK-293T) (PSI 1-6); higher = more stable;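 further: lentivirally expressed fusions sorted by FACS into six bins by GFP to DsRed ratio, PSI derived from sequencing read proportions per bin multiplied by bin number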
Settings: c terminus: native
// print number alone

// query For the variant SNFHINVHESVDGQVVSSHKREI [E8H] , what protein stability index is on record?
// result 1.78

// query For the variant SNFHINVEESVDGQVVSSHNREI [K20N] , what protein stability index is on record?
// result 5.38

// query For the variant SNFHINVEESVVGQVVSSHKREI [D12V] , what protein stability index is on record?
// result 2.65
